tested on: MDA-MB-435; test: NCI tumour cell line growth inhibition, 48 h
Exercise: for every item that follows, state its recorded TGI.
Give just the numeric value; nM need not be written.

Given the compound CC[C@@H]1[C@@H](C)O[C@@](O)([C@@H](C)[C@H](O)[C@H](C)[C@H]2OC(=O)/C=C/C=C/[C@H](C)[C@@H]([C@@H](C)[C@@H](O)[C@H](C)[C@@]3(O)C[C@@H](O[C@H]4C[C@@H](O)[C@H](O)C(C)O4)[C@H](CC)[C@@H](C)O3)OC(=O)/C=C/C=C/[C@@H]2C)C[C@H]1O[C@@H]1C[C@@H](O)[C@H](O)C(C)O1 (stereo partly drawn) and test system MDA-MB-435, the measured TGI is 261

Item: `Cc1c2ccnc(C(=O)NCCN(C)C)c2cc2c3cc(O)ccc3n(C)c12` | System: MDA-MB-435 | TGI: 1540

###

test system: K-562 leukemia; test: NCI tumour cell line growth inhibition, 48 h
Test Readout: TGI (µM)
API: value field is a number in µM; no unit string.

Fill in: K-562 leukemia TGI for CCCCCCCCCCCCCCCCCCNc1ccn(C2OC(COP(=O)(O)OCC3OC(n4cc(C)c(=O)[nH]c4=O)CC3F)C(O)C2O)c(=O)n1 (stereo not drawn) = 42.5

Form field TGI for item `Cc1cc(Nc2ccc(OCc3ccccc3)cc2)nc2cc(O)ccc12` on K-562 leukemia: 14.9

// assay K-562 leukemia, entry CCCC(=O)Nc1cc(/C=C/C(=O)N2CC(CCl)c3c2cc(OCc2ccccc2)c2[nH]cc(C)c32)n(C)c1 (stereo not drawn) , TGI value = 0.904

Readout TGI for `C[Si](C)(C)C#Cc1cc(-c2nc3ccccc3s2)ccc1N` , test system K-562 leukemia, was 70.6

Simply: O=P1(Oc2ccccc2)N=P(c2ccccc2)(c2ccccc2)C=C(c2ccc(Cl)cc2)N1 (stereo not drawn) , K-562 leukemia, TGI = 22.2

GET /values?item= `C=C(C)[C@@H]1CC[C@]2(COCCC#N)CC[C@]3(C)[C@H](CC[C@@H]4[C@@](C)(CCCNCCC#N)[C@H](C(=C)C)CC[C@]43C)[C@@H]12` &system= K-562 leukemia returns TGI: 31.6

Value (TGI, K-562 leukemia) for record `COc1ccccc1NC(=O)C1=C(C)NC(C)=C(C(=O)Nc2ccccc2OC)C1C1=CC=COC1` = 26

Entry `CCOC(=O)[C@@H](C)C[C@H](Cc1ccccc1)NC(=O)c1nc([C@@H](C[C@H](C(C)C)N(C)C(=O)[C@@H](NC(=O)[C@H]2CCCCN2C)C(C)C)OC(C)=O)sc1CCOCc1ccccc1` , tested on K-562 leukemia, has a reported TGI of 1.92

###

tested on: DMS 273 small cell lung; experiment: NCI tumour cell line growth inhibition, 48 h
Test Readout: TGI (µM)
Give the number; µM is assumed, so skip it.

Note to self: TGI of `Nc1c(-c2cn(Cc3ccccc3)c3ccccc23)[n+]([O-])c2ccccc2[n+]1[O-]` with DMS 273 small cell lung was 81.8

// returns TGI for `COc1cc([C@@H]2c3cc4c(c(O)c3C[C@H]3COC(=O)[C@@H]32)OCO4)cc(OC)c1OC` with DMS 273 small cell lung; value = 1.5

The compound `NC(=S)N/N=C/c1nccc2ccccc12` , when measured on DMS 273 small cell lung, yielded TGI of 12.9

Form field, TGI with DMS 273 small cell lung, item `COc1ccccc1NC(=O)C1=C(C)NC(C)=C(C(=O)Nc2ccccc2OC)C1C1=CC=COC1` : 29.1

So the reported TGI for `c1ccc([CH2][Sn]([CH2]c2ccccc2)([O]c2cccc3cccnc23)[O]c2cccc3cccnc23)cc1` , on DMS 273 small cell lung, turned out to be 0.502

Form field, TGI with DMS 273 small cell lung, item `COc1ccc2c(c1O)-c1cc(O)cc3c1[C@@H](C2)N(C)CC3` : 127

###

Give TGI for every item shown.
system: IGROV1 ovarian; experiment: NCI tumour cell line growth inhibition, 48 h

According to the records, this molecule `Nc1ccccc1NC(=O)c1ccc(CNc2nccc(-c3cccnc3)n2)cc1` displays TGI of > 27.7 µM

response.value for CC(=O)N1N=C(c2ccc3ccccc3c2O)CC1c1cccs1 (stereo not drawn) (field: TGI) = > 100 µM

GET /value?item= C=C1CC2CCCC12C=O (stereo not drawn) &field=TGI returns > 10 µM

###

Kindly supply the reported TGI values for the records listed here.
test system: SK-OV-3 ovarian; assay: NCI tumour cell line growth inhibition, 48 h

Note to self: TGI recorded for `CCN(CC)Cc1cc(Nc2c3ccccc3nc3c2[nH]c2ccccc23)cc(CN(CC)CC)c1O` was 17 µM

Entry COc1ccccc1C1C(Cl)C(=O)N1n1cnc2ccccc2c1=O (stereo unspecified) ; TGI = > 100 µM

Value of TGI reported for the compound CC1=Nc2ccccc2NC(c2ccoc2)C1 (stereo unspecified) is > 100 µM

Value of TGI reported for the compound `COc1ccc(OC)c(CSc2ccc(OC)c(OC)c2)c1` is > 100 µM

TGI for CN1C(=O)CCC2[C@@H]3CC=C4C[C@@H](O)CC[C@]4(C)C3CC[C@@]21C (stereo partly specified) is > 100 µM

Short answer for `S=C(NNC1=NCCCCN1)Nc1ccc(Cl)cc1` : TGI was 93.1 µM

NC1=NC2=c3ccccc3=C(c3cnccn3)C2(c2cnccn2)c2ccccc21 (stereo unspecified) yielded TGI of > 100 µM

Query `CC(C)(C)c1cc(-c2cc(C(C)(C)C)[nH]n2)n[nH]1` yields TGI of > 100 µM

Query `N.N.NCCCCCN.O=C([O-])CCl.O=C([O-])CCl.O=C([O-])CCl.O=C([O-])CCl.[Pt+4].[Pt+4]` yields TGI of 48.1 µM

TGI recorded for this compound, `CC(C)(C)n1c(=O)n2n(c1=O)Cc1cccc3cccc(c13)C2` , is 93.3 µM

Kindly note the recorded TGI for `COc1ccc(C(=O)Nc2ncc(Cc3cccc(Cl)c3)s2)cc1OC` , which is > 100 µM

###

test system: OVCAR-8 ovarian; test: NCI tumour cell line growth inhibition, 48 h
Label rule, in plain words: TGI of 30 µM and up is label 1, under 30 µM is label 0.

Exam item: decide whether the reported TGI for `Cc1ccc(S(=O)(=O)c2ccc(NC(=O)SCCC(=O)O)cc2)cc1` is at least 30 µM. label 1

Could you verify whether the entry `CCOP(=O)(OCC)C(C)(C)N(C)/C(F)=N/C(F)(F)F` shows TGI of no less than 30 µM? label 1

TGI >= 30 µM for COC(=O)CCC(C)[C@H]1CCC2C3C(C[C@H](OC(C)=O)[C@@]21C)[C@@]1(C)CCC2(C[C@H]1C[C@H]3OC(C)=O)OOC1(CCCC1)OO2 (some centres not stated) ? label 1

Hi team, for `O=C(c1ccccc1)c1ccc(N2C(=O)/C(=C/Cc3ccco3)N=C2c2ccccc2)c(N2C(=O)/C(=C/Cc3ccco3)N=C2c2ccccc2)c1` , is the recorded TGI at or above 30 µM? label 1

Check if TGI >= 30 µM (inclusive). Item: `CC1=NN(C(=O)c2ccccc2O)C(=O)/C1=C/c1cccc(O)c1` label 1

Item CCCCCC1CC=CC(=O)O1 (configuration not stated) with TGI of 30 µM or above? label 0

Would you say O=C(O)CSC(CC1(c2ccc(Cl)cc2)NC(=O)CS1)c1ccc(Cl)cc1 (configuration not stated) shows TGI at minimum 30 µM? label 1

Please indicate if the recorded TGI for `Cc1cc(=O)[nH]c(N/N=C/c2cc(Br)ccc2O)n1` meets or exceeds 30 µM. label 1

TGI >= 30 µM for `C1=NCCN2CCN(CCN=Cc3ccccc3OCc3cccc(n3)COc3ccccc31)CC2` ? label 1

Hi, just wondering whether CCCC(=O)Nc1cc(/C=C/C(=O)N2CC(CCl)c3c2cc(OCc2ccccc2)c2[nH]cc(C)c32)n(C)c1 (configuration not stated) shows TGI of 30 µM or higher. label 0

Has `O=C1/C(=C\c2ccc(F)cc2)CN(C(=O)c2ccccc2)C/C1=C\c1ccc(F)cc1` a recorded TGI greater than or equal to 30 µM? label 0

Hi, just wondering whether OC(c1cc(-c2cccc(Cl)c2)nc2ccccc12)C1CCCCN1 (configuration not stated) shows TGI of 30 µM or higher. label 0

Is the recorded value of TGI equal to or greater than 30 µM for this compound? `O=C(COc1ccc(/C=C2\COc3ccccc3C2=O)cc1)Nc1nccs1` label 1

Is reported TGI greater than or equal to 30 µM here: `CO/C=C/C(=O)c1cc2cnc3c(=N)cc(NC(=O)C(C)C)c([nH]1)c23` label 0

Form field: TGI at least 30 µM? Entry: CCCCCCCCOCC(O)COC(C)C (configuration not stated) label 1

# check: TGI of `FC(F)(F)c1ccc(Cc2nc3cc4ccccc4cc3[nH]2)cc1` is greater than or equal to 30 µM label 1

Hello, I need to know if CCCC(=O)NC(Nc1cc(C)ccn1)(C(=O)OCC)C(F)(F)F (configuration not stated) has measured TGI not below 30 µM. Thanks! label 1

Textbook exercise: given the entry COC1OC(CO)C(O)C(OC(C)=O)C1NC(=O)N(CCCl)N=O (configuration not stated) , state whether its TGI is greater than or equal to 30 µM. label 1

Assess whether reported TGI for O=C1C(Cl)N(c2cccc(Cl)c2)C1c1c[nH]c2ccccc12 (configuration not stated) sits at 30 µM or higher. label 1

Does the compound `Cc1ccc(/C=N/n2c(Cc3ccccc3)n[nH]c2=O)cc1` have recorded TGI that is 30 µM or more? label 1

Determine whether this compound has TGI no lower than 30 µM: `Cc1c(C)c(C)c(CC2(C)CSC2)c(CC2(C)CSC2)c1C` label 1

Evaluate `CN(C)c1ccc(/C=C/C(=O)[O-])cc1.CN(C)c1ccc(/C=C/C(=O)[O-])cc1.[Cu+2]` : TGI at minimum 30 µM? label 1

Confirm if TGI reported for the compound `CCOC(=O)c1ccc2c(c1)Cc1cc([N+](=O)[O-])ccc1-2` is 30 µM or above. label 1

Could you please find out whether `CC(=O)N(C)c1ccc(N=CN(C)C)cc1` has TGI that meets 30 µM or exceeds it? label 1

Is TGI for `COc1ccc(N=Cc2c(O)ccc3c2oc2cc(Cl)c(O)c(Cl)c23)cc1` at or above 30 µM? label 1

Is the recorded value of TGI equal to or greater than 30 µM for this compound? CC(=O)OC(CN1CCN(c2ccccn2)CC1)Cn1sc2nc(C)cc(C)c2c1=O (configuration not stated) label 1

Item C=C(C)C1CC/C(C)=C/CCC2(C)OC2CC/C(CO)=C\C1O (configuration not stated) with TGI of 30 µM or above? label 1

Threshold query (TGI >= 30 µM) on `CN1CCC(COc2cnc(-c3cccc(Cn4nc(-c5cccc(C#N)c5)ccc4=O)c3)nc2)CC1` label 0

Item `Cc1sc2[nH]c(=O)oc(=O)c2c1C` with TGI of 30 µM or above? label 1

Confirm if TGI reported for the compound COC(=O)C1=Cc2cc(OC)c(OC)c(OC)c2[C@H](c2cc(OC)c(OC)c(OC)c2)C1C(=O)OC (some centres not stated) is 30 µM or above. label 1

Answer whether TGI of `C[n+]1c(/C=C/c2c[nH]c3ccccc23)ccc2ccccc21` is greater than or equal to 30 µM. label 0

Assess whether reported TGI for `CC1=C(O)c2cn(C)cc2C(=O)C1=O` sits at 30 µM or higher. label 1

Say whether `Oc1ccc([Te]CCNCC[Te]c2ccc(O)cc2)cc1` shows TGI of 30 µM or more. label 1

Answer whether TGI of `C=C(C)[C@@H]1CC[C@]2(COCCC#N)CC[C@]3(C)[C@H](CC[C@@H]4[C@@](C)(CCCNCCC#N)[C@H](C(=C)C)CC[C@]43C)[C@@H]12` is greater than or equal to 30 µM. label 1

Record `Nc1ccccc1NC(=O)c1ccc(CNc2nccc(-c3cccnc3)n2)cc1` ; criterion: TGI no lower than 30 µM. Met? label 1

Given the entry `NC1=CC(=O)c2cccnc2C1=O` , answer whether its TGI meets or surpasses 30 µM. label 0

Please tell me: is the compound `C=CCNC(=S)N=Nc1c(O)n(CN2CCOCC2)c2ccc([N+](=O)[O-])cc12` at or over 30 µM in terms of TGI? label 1

Item `COc1ccc(-c2csc(=Nc3ccccc3)n2CCCN(C)C)cc1` with TGI of 30 µM or above? label 1

Is TGI for `C=C(C)C(=O)O[C@H]1CC2=C[C@@H](C[C@@]3(C)O[C@@H]3[C@H]3OC(=O)C(=C)[C@@H]31)OC2=O` at or above 30 µM? label 0
